# target.system: ECFP-eDHFR and YFP-FKBP(F36V) (UniProt P0ABQ4+P62942, F37V)
# measurement.protocol: FRET titration of ligand-induced heterodimerization of recombinant fusion proteins
# Assay type: binding
# test.settings: 400 nM ECFP-eDHFR and 400 nM YFP-FKBP(F36V); quadratic fit; read-out: dissociation constant Kd from FRET titration
metric.name: Kd (nM)
I only need the number, in nM, no unit after it.

Given the compound CCC(C(=O)N1CCCCC1C(=O)O[C@H](CCc1ccc(OC)c(OC)c1)c1cccc(OCC(=O)NCCCOCCOCCOCCCNC(=O)COc2c(OC)cc(Cc3cnc(N)nc3N)cc2OC)c1)c1cc(OC)c(OC)c(OC)c1 (stereo partly shown) [SLF′-TMP] , what is its reported Kd?
120
